Test system: HCC-2998 colon
Experiment: NCI tumour cell line growth inhibition, 48 h
Give TGI for every item shown.

Please review the following examples before continuing.
Value lookup for TGI; key = Cn1cc(C2=C(c3cccc(OCC(O)CO)c3)C(=O)NC2=O)c2ccccc21 (stereo not drawn)
> 25 µM

Lookup CC[N+]1(C)CCC(O)(c2ccc(Cl)c(Cl)c2)C(C(=O)c2ccc(Cl)c(Cl)c2)C1 (stereo not drawn)
> 10 µM

What about CC1=NN(c2nc(N)nc(/C(C#N)=C/c3cccn3-c3cc(Cl)cc(Cl)c3)n2)C(C)(C)C1 ?
> 100 µM

Now try O=C1CC(S(=O)(=O)O)C=C1Nc1cccc(Cl)c1 (stereo not drawn) .
> 100 µM

Same again, this time with Cc1c2c(n(CCc3ccc(Cl)cc3)c1C)NC(c1ccccc1)C(C#N)S2(=O)=O (stereo not drawn)
> 100 µM

Take each entry in turn and give its TGI.
1. CC(C)(Oc1ccc(Cl)cc1)C(=O)N(C(=O)N1CCC(c2ccccc2)CC1)c1ccccc1
2. Cc1cc(N2CCCC2)nc(N(CCNc2ccnc3cc(Cl)ccc23)Cc2ccco2)n1

["> 100 µM", "56.7 µM"]

For each of the items listed, what is its TGI?
1. O=C1c2c(O)cccc2C(C2OC(CO)C(O)C(O)C2O)c2cc(CO)cc(O)c21 (stereo not drawn)
2. CCCC(=O)NC(Nc1ccc(S(=O)(=O)Nc2nc(C)cc(C)n2)cc1)(C(F)(F)F)C(F)(F)F
3. O=[N+]([O-])c1cccc([As]=[As]c2cccc([N+](=O)[O-])c2)c1 (stereo not drawn)
4. CC(C)C(OC(=O)c1ccc(NCc2cc(O)ccc2O)cc1)C(C)C
5. OC(CCNCc1ccccc1)c1ccc2ccccc2c1 (stereo not drawn)
6. CN1c2ccccc2N(C)C23N(C)c4ccccc4N(C)C12N(C)c1ccccc1N3C (stereo not drawn)

1. > 100 µM
2. > 100 µM
3. 0.275 µM
4. 10.2 µM
5. 62.8 µM
6. > 100 µM

Please give TGI for each item listed below.
1. COc1cc(C2C(Cl)C(=O)N2NC(=O)c2ccc(N)cc2)ccc1O (stereo not drawn)
2. O=c1cc(N2CCN(c3cc(=O)n4ccccc4n3)CC2)oc2ccccc12
3. CCOC(=O)C(NC(=O)CC)(Nc1cc(C)on1)C(F)(F)F (stereo not drawn)
4. COC(=O)c1cc2ccc(OC(C)=O)c(OC(C)=O)c2cn1
5. COc1cc(C(=O)NC2CCN(C)CC2)c(F)cc1Nc1ncc2c(n1)N(C1CCCC1)CC(F)(F)C(=O)N2C

1. 38 µM
2. > 100 µM
3. > 100 µM
4. 44.6 µM
5. 12.3 µM

Provide reported TGI for each item, in the same order as listed.
1. C=C1C(=O)OC2C1C(OC(=O)/C(C)=C/C)CC(O)(CCl)C1C(O)C3OC3(C)C21O (stereo not drawn)
2. CC1(C)C2C=CC1(C)C1(CC2)OCCO1 (stereo not drawn)
3. CN(/N=C/c1cccc2cccnc12)c1ccccc1
4. Nc1ncnc2c1nnn2C1CCC(CP(=O)(O)O)C1 (stereo not drawn)
5. O=S1(=O)OCCOS(=O)(=O)C1Cc1ccccc1

> 50 µM
> 100 µM
> 100 µM
> 100 µM
45.4 µM
